Tested on: HCT116
Experiment: efficacy (fitted maximal change in viability relative to DMSO control); higher = less cytotoxic (negative = loss of viability)
Settings: 48 h
Outcome Measure: efficacy
// return the numeric value with its unit appended

Find the recorded efficacy belonging to CC(C)C[C@H](NC(=O)[C@@H](NC(=O)c1cccc(-c2ccccc2)n1)[C@@H](C)O)B(O)O [Delanzomib] and report it.
-84.8%

Try the compound Cc1ccc(C(=O)Nc2ccc(CN3CCN(C)CC3)c(C(F)(F)F)c2)cc1C#Cc1cnc2[nH]ncc2c1 [GZD-824]
-121%

Try the compound CC(C)[C@H](O)C(=O)N[C@@H](C)C(=O)N[C@@H]1C(=O)N(C)CCc2ccccc21 [Semagacestat]
-9.53%

Try the compound CCC(C)SSc1ncc[nH]1 (stereo not drawn) [PX-12]
-88.8%

Try the compound C=CC(=O)Nc1cccc(Nc2nc(Nc3ccc(N4CCN(C(C)=O)CC4)cc3OC)ncc2C(F)(F)F)c1 [Rociletinib]
-112%

Try the compound COC1=CC=CC2=C1C(=NC(=N2)C3=CC=CS3)NN4C(=O)\C=C(C)/C4=O [SPC-839]
-91.1%

Try the compound CC(C)c1cc(C(=O)N2Cc3ccc(CN4CCN(C)CC4)cc3C2)c(O)cc1O [Onalespib]
-54.3%

Try the compound C=C1/C(=C\C=C2/CCC[C@]3(C)[C@@H]([C@H](C)/C=C/[C@H](C)C(C)C)CC[C@@H]23)C[C@@H](O)C[C@@H]1O [Doxercalciferol]
-85.4%

###

Test system: HCT116
Assay: AC50 cell viability (CellTiter-Glo); higher = less potent
Settings: 48 h
Outcome Measure: AC50 cell viability (nM)
Write the value in nM as a bare number.

Some entries whose results are on file:
INSERT INTO measurements (compound_structure_string, outcome_measure, unit_string, val) VALUES
  ('CC[C@@]1(O)C(=O)OCC/2=C1/C=C/3N(CC4=C(CCNC(C)C)C5=CC=CC=C5N=C34)C2=O', 'AC50 cell viability', 'nM', 16.6),
  ('CNC(=O)c1ccccc1Nc1nc(Nc2ccc3c(c2OC)CCC[C@@H](N2CCN(CCO)CC2)C3)ncc1Cl', 'AC50 cell viability', 'nM', 4170);

GET /values?readout=AC50 cell viability&system=HCT116&item= "CN(C)C1CCN(C(=O)c2ccc(NC(=O)Nc3ccc(-c4nc(N5CCOCC5)nc(N5CCOCC5)n4)cc3)cc2)CC1"
148

Try the compound "S=C1N\C=N/C2=C1[NH]C=N2"
1660

###

Tested on: HCT116
Experiment: AC50 cell viability (CellTiter-Glo); higher = less potent
Settings: 48 h
Outcome Measure: AC50 cell viability (µM)
Write the value in µM as a bare number.

Some entries whose results are on file:
INSERT INTO assay_data (compound, outcome_measure, val) VALUES
  ('Cc1cc(Nc2ncc3c(n2)N(C)C(=O)N(c2cc(NC(=O)c4cccc(C(F)(F)F)c4)ccc2C)C3)n(C)n1', 'AC50 cell viability', 0.235),
  ('CCC[C@H](N[C@H]1CCc2cc(F)cc(F)c2C1)C(=O)Nc1cn(C(C)(C)CNCC(C)(C)C)cn1', 'AC50 cell viability', 20.9),
  ('CC[C@]12\C=C/CN3CC[C@]4([C@@H](N(C)C5=C4C=C(C(=C5)OC)[C@]6(CC7C[C@H](CN(C7)CC8=C6[NH]C9=C8C=CC=C9)C(C)(F)F)C(=O)OC)[C@](O)([C@@H]1OC(C)=O)C(=O)OC)[C@H]23 (stereo partly drawn) [Vinflunine (Tartrate)]', 'AC50 cell viability', 0.209);

Now let's try a different one.
Find the recorded AC50 cell viability belonging to "CCCCc1nc2cc(/C=C/C(=O)NO)ccc2n1CCN(CC)CC" and report it.
0.372

###

System: HCT116
Assay: AC50 cell viability (CellTiter-Glo); higher = less potent
Conditions: 48 h
Catalogue of AC50 cell viability values
Write the value in µM as a bare number.

INSERT INTO assay_data (molecule, system_name, val) VALUES
  ('C=CC[C@@H]1/C=C(\C)C[C@H](C)C[C@H](OC)[C@H]2O[C@@](O)(C(=O)C(=O)N3CCCC[C@H]3C(=O)O[C@H](/C(C)=C/[C@@H]3CC[C@@H](O)[C@H](OC)C3)[C@H](C)[C@@H](O)CC1=O)[C@H](C)C[C@@H]2OC', 'HCT116', 23.5);

Find the recorded AC50 cell viability belonging to "CONC(=O)Nc1ccc(-c2sc3c(c2CN(C)Cc2ccccc2)c(=O)n(-c2ccccc2)c(=O)n3Cc2c(F)cccc2F)cc1" and report it.
16.6

Try the molecule "CO[C@@H]1[C@@H](O)[C@H](O)[C@@H](n2c3c(Cl)cccc3c3c4c(c5c6cccc(Cl)c6[nH]c5c32)C(=O)NC4=O)O[C@H]1CO"
0.934

Try the molecule "NC\1=N\C(=O)N(\C=C1)[C@H]\2[C@H](O)[C@H](O)C(=C2F)\CO"
0.525

###

Tested on: HCT116
Assay: AC50 cell viability (CellTiter-Glo); higher = less potent
Settings: 48 h
Outcome Measure: AC50 cell viability (nM)
Write the value in nM as a bare number.

Some entries whose results are on file:
INSERT INTO measurements (molecule, unit_string, val) VALUES
  ('CC(C)C[C@H](NC(=O)[C@H](CCc1ccccc1)NC(=O)CN1CCOCC1)C(=O)N[C@@H](Cc1ccccc1)C(=O)N[C@@H](CC(C)C)C(=O)[C@@]1(C)CO1 [Carfilzomib]', 'nM', 11.8),
  ('COc1ccc(-c2ccc3c(N4CCOC[C@@H]4C)nc(N4CCOC[C@@H]4C)nc3n2)cc1CO [AZD-8055]', 'nM', 295),
  ('Nc1ccc(/C=C/C(=O)NCc2cc3cc(-c4ccc(C(=O)N5CCC(F)(F)CC5)cc4)cc(-c4ccc(F)cc4)c3o2)cn1 [KPT-9274]', 'nM', 590),
  ('Cc1nc(N)ncc1-c1nc(N2CCOCC2)c2sc(C(C)(C)O)cc2n1 [GNE-490]', 'nM', 2630),
  ('C[C@H](NC1=C2N=C[NH]C2=NC=N1)C/3=C/C4=C(C(=CC=C4)Cl)C(=O)N3C5=CC=CC=C5 [Duvelisib]', 'nM', 18600);

Find the recorded AC50 cell viability belonging to O=C/1\C=C(/OC(=C1)/C2=C3SC4=C(SC3=CC=C2)C=CC=C4)N5CCOCC5 [KU-0064] and report it.
16600

Try the molecule "Cc1cc(CN2CCN(c3c(Br)cnc4[nH]c(-c5ccc(N6CCN(C)CC6)cc5)nc34)CC2)no1"
5250

###

Test system: HCT116
Experiment: efficacy (fitted maximal change in viability relative to DMSO control); higher = less cytotoxic (negative = loss of viability)
Details: 48 h
Outcome Measure: efficacy (%)
Write the value in % as a bare number.

INSERT INTO measurements (compound, system_name, outcome_measure, val) VALUES
  ('CNC(=O)c1nn(C)c2c1C(C)(C)Cc1cnc(Nc3ccc(N4CCN(C)CC4)cc3)nc1-2 [Milciclib]', 'HCT116', 'efficacy', -63.4),
  ('CC(C)Nc1cc(C(F)(F)F)cc2nc(NC(=O)c3cccnc3)nn12 [S-99]', 'HCT116', 'efficacy', -15),
  ('Cc1ccc(N[S+](=O)([O-])c2cccc(C#N)c2)c2[nH]cc(C#N)c12 [E-7820]', 'HCT116', 'efficacy', -53.2),
  ('CNC(=O)c1ccc(N2C(=S)N(c3ccc(C#N)c(C(F)(F)F)c3)C(=O)C2(C)C)cc1F [Enzalutamide]', 'HCT116', 'efficacy', -37);

Find the recorded efficacy belonging to COC(=O)N[C@@H](C)CNc1nccc(-c2cn(C(C)C)nc2-c2cc(Cl)cc(N[S+](C)(=O)[O-])c2F)n1 [Encorafenib] and report it.
-52.7

Try the compound NC(=O)Nc1cc(-c2cccc(F)c2)sc1C(=O)N[C@H]1CCCNC1 [AZD-7762]
-101

Try the compound N[S+](=O)([O-])c1cc2c(cc1Cl)NC(C(Cl)Cl)N[S+]2(=O)[O-] (configuration not stated) [Trichlormethiazide]
6.79

###

Tested on: HCT116
Experiment: efficacy (fitted maximal change in viability relative to DMSO control); higher = less cytotoxic (negative = loss of viability)
Settings: 48 h
Catalogue of efficacy values

Some entries whose results are on file:
INSERT INTO assay_data (compound, val) VALUES
  ('CC(C(=O)O)c1ccc(-c2ccccc2)c(F)c1 (stereo unspecified)', '-9.87%'),
  ('O=C(Nc1cc(Oc2cc(F)c(NC(=O)C3(C(=O)Nc4ccc(F)cc4)CC3)cc2F)ccn1)C1CC1', '-68.8%'),
  ('CC1=NN(c2ccc(C(=O)O)cc2)C(=O)/C1=C/c1ccc(-c2cc(C)c(C)cc2[N+](=O)[O-])o1', '-21%'),
  ('CC(C)Cn1cnc2c(N)nc3ccccc3c21', '-14.9%'),
  ('COc1cc(N2CCC(N(C)C)CC2)ccc1Nc1ncc(Cl)c(Nc2ccccc2P(C)(C)=O)n1', '-87.7%');

Find the recorded efficacy belonging to "CC(C)C[C@@H](C(=O)N[C@H](C(=O)OC1CCCC1)c1ccccc1)[C@H](O)C(=O)NO" and report it.
-95.7%

Try the compound "COc1ccc(C(=O)N2CCCC2=O)cc1"
-17.4%

Try the compound "c1coc(CNc2ncnc3nc[nH]c23)c1"
-22.2%
